- target system: PI3Kα (Homo sapiens)
- Sequence (P42336 whole entry): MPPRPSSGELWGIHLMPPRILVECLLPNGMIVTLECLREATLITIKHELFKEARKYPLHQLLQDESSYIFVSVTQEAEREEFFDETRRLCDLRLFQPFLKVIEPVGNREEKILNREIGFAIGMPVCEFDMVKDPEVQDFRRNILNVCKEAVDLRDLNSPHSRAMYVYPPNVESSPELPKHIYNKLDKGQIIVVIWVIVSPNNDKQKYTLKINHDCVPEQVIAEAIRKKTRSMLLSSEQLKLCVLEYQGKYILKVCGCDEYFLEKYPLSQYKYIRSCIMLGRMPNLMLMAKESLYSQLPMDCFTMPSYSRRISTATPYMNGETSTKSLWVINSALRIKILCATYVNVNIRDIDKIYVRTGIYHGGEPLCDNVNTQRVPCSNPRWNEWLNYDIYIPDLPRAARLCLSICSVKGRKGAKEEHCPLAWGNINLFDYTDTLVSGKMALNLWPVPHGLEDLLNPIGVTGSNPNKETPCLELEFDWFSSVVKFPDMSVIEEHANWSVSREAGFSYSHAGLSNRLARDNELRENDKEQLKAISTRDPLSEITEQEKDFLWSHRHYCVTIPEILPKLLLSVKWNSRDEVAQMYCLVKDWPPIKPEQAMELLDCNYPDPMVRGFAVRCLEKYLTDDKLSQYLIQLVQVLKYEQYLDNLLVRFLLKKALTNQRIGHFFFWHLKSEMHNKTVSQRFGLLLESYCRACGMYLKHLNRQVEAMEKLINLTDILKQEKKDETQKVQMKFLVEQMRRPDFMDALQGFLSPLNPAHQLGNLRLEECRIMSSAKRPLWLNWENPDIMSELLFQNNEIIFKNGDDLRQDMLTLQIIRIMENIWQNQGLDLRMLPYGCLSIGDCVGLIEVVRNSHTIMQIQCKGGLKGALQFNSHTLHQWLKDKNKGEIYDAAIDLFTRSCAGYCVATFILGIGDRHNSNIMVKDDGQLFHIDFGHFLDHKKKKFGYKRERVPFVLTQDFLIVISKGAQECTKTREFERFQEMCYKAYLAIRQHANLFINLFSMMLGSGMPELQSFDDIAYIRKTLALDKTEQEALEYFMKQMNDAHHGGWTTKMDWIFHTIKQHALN
- Sequence (P27986 whole entry partner): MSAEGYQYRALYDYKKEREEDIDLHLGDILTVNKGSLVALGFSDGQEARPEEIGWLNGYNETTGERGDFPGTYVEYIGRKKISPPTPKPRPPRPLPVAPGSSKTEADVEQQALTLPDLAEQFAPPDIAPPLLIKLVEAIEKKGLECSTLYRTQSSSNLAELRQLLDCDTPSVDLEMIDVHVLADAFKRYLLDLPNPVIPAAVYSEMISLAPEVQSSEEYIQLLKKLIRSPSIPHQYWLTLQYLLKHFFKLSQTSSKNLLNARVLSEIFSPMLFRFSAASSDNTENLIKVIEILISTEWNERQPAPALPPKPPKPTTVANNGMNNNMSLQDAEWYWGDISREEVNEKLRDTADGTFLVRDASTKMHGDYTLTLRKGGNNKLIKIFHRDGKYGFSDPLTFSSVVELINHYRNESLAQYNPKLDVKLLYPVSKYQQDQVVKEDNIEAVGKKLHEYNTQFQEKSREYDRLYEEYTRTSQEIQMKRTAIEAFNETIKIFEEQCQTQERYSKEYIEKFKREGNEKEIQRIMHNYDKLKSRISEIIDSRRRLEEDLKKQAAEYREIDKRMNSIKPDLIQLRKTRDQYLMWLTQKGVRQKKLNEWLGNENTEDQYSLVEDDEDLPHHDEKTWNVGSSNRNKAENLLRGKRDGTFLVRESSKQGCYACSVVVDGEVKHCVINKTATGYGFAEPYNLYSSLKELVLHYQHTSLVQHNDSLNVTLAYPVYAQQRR
- method: pAKT S473 ELISA in A549 cells (PI3Kα activation)
- Assay type: cell-based
- Design: endogenous in cells; host or cells: A549
- condition notes: A549 cells, 15 min treatment, pAKT S473 ELISA, normalised to Emax of 1 μM insulin; read-out: Av EC50
For each entry below, report its pEC50 value.
As a rule, pEC50 stands for the negative log10 of the concentration, concentration in M.

Q: Please report the recorded pEC50 for CC(=O)N1CCc2cccc(Nc3ccnc(Nc4ccc(N5CCN(C)CC5)cc4)c3)c21 .
A: 5.58

Q: Param item = COc1cc(Nc2cc(Nc3ccc4c(c3)CCN4C(C)=O)ccn2)cc(OC)c1OC ; retrieve measured pEC50.
A: 6.36

Q: I am curious: what pEC50 value has been reported for CC(=O)N1CCc2cccc(Nc3ccnc(Nc4cc(C(C)C)nn4C)c3)c21 ?
A: 6.41

Q: Record request: pEC50 value, item CC(=O)N1CCc2cccc(Nc3ccnc(Nc4cccc5ncccc45)c3)c21
A: 5.40

Q: # query: pEC50 of entry COc1cc(N2CCN(C)CC2)ccc1Nc1cc(Nc2cccnc2)ccn1
A: 5.80

Q: What pEC50 value was documented for this compound, CNC(=O)c1cccc(Nc2cc(Nc3cccc4c3N(C(C)=O)CC4)ccn2)c1 ?
A: 5.75

Q: For the compound shown here, CCOCC(=O)N1CCc2cccc(Nc3ccnc(Nc4ccc(N5CCN(C)CC5)cc4OC)c3)c21 , give the reported pEC50.
A: 5.18

Q: Consider the compound CC(=O)N1CCc2cccc(Nc3ccnc(Nc4ccc(C#N)cc4)c3)c21 and give its measured pEC50.
A: 5.76

Q: What measured pEC50 goes with CC(=O)N1CCc2cccc(Nc3ccnc(Nc4ccc(Oc5ccccc5)cc4)c3)c21 ?
A: 5.06

Q: What value of pEC50 has been recorded for this entry: CC(=O)N1CCc2cccc(Nc3ccnc(Nc4ccc(C(N)=O)cc4)c3)c21
A: 5.30

Q: Entry under review: COc1cc(N2CCN(C3CC3)CC2)ccc1Nc1cc(Nc2cccc3c2N(C(C)=O)CC3)ccn1 . Reported pEC50?
A: 6.01

Q: Would you mind telling me what pEC50 value was observed for COc1cc(N2CCN(C)CC2)ccc1Nc1cc(Nc2cc(-c3ccccc3)nn2C)ccn1 ?
A: 5.85
